Hello, the source for this data is the NIST ThermoML archive (doi:10.1021/je100341q), in case you need it.

# experimental-context: Crystal; DTA
reported-endpoint: Normal melting temperature (°C)

>  <molecule>
O=P1(O)OCC2(CO1)COP(=O)(O)OC2 (stereo unspecified)

>  <unit-abbrev>
°C

>  <quantitative-readout>
310.57

$$$$
>  <molecule>
O=P1(Oc2ccccc2)OCC2(CO1)COP(=O)(Oc1ccccc1)OC2 (stereo unspecified)

>  <unit-abbrev>
°C

>  <quantitative-readout>
196.43

$$$$
>  <molecule>
COc1ccc(P(c2ccc(OC)cc2)c2ccc(OC)cc2)cc1 [tris(4-methoxyphenyl)phosphane]

>  <unit-abbrev>
°C

>  <quantitative-readout>
130.67

$$$$
>  <molecule>
O=P(O)(CO)c1ccccc1 [(hydroxymethyl)(phenyl)phosphinic acid]

>  <unit-abbrev>
°C

>  <quantitative-readout>
140.2

$$$$
>  <molecule>
O=C(O)CCP(=O)(O)c1ccccc1 [3-(hydroxy(phenyl)phosphoryl)propanoic acid]

>  <unit-abbrev>
°C

>  <quantitative-readout>
159.51

$$$$
>  <molecule>
COc1ccc(P(=O)(c2ccc(OC)cc2)c2ccc(OC)cc2)cc1 [tris(4-methoxyphenyl)phosphine oxide]

>  <unit-abbrev>
°C

>  <quantitative-readout>
144.69

$$$$

###

# assay-method-text: Molar enthalpy of transition or fusion
# experimental-context: Crystal; DSC

>  <molecule>
O=P1(Oc2ccccc2)OCC2(CO1)COP(=O)(Oc1ccccc1)OC2 (stereo unspecified)

>  <unit-abbrev>
kcal/mol

>  <Molar enthalpy of transition or fusion>
8.71

$$$$
>  <molecule>
COc1ccc(P(c2ccc(OC)cc2)c2ccc(OC)cc2)cc1 [tris(4-methoxyphenyl)phosphane]

>  <unit-abbrev>
kcal/mol

>  <Molar enthalpy of transition or fusion>
6.14

$$$$
>  <molecule>
COc1ccc(P(=O)(c2ccc(OC)cc2)c2ccc(OC)cc2)cc1 [tris(4-methoxyphenyl)phosphine oxide]

>  <unit-abbrev>
kcal/mol

>  <Molar enthalpy of transition or fusion>
6.82

$$$$
>  <molecule>
O=P1(O)OCC2(CO1)COP(=O)(O)OC2 (stereo unspecified)

>  <unit-abbrev>
kcal/mol

>  <Molar enthalpy of transition or fusion>
5.37

$$$$
>  <molecule>
O=P(O)(CO)c1ccccc1 [(hydroxymethyl)(phenyl)phosphinic acid]

>  <unit-abbrev>
kcal/mol

>  <Molar enthalpy of transition or fusion>
6.49

$$$$
>  <molecule>
O=C(O)CCP(=O)(O)c1ccccc1 [3-(hydroxy(phenyl)phosphoryl)propanoic acid]

>  <unit-abbrev>
kcal/mol

>  <Molar enthalpy of transition or fusion>
8.03

$$$$

###

# assay-method-text: refractive index (Na D-line) (dimensionless)
# experimental-context: 293.15 K; 101.33 kPa; Liquid; Standard Abbe refractometry

>  <compound>
CC#N

>  <refractive index>
1.343

$$$$
>  <compound>
CCOCC

>  <refractive index>
1.3497

$$$$
>  <compound>
CC(=O)O

>  <refractive index>
1.3716

$$$$
>  <compound>
CCC(C)=O

>  <refractive index>
1.3788

$$$$
>  <compound>
Cc1ccccc1

>  <refractive index>
1.4967

$$$$
>  <compound>
ClC(Cl)Cl

>  <refractive index>
1.4476

$$$$
>  <compound>
c1ccccc1

>  <refractive index>
1.5011

$$$$
>  <compound>
C1COCCO1

>  <refractive index>
1.4175

$$$$
>  <compound>
CO

>  <refractive index>
1.3301

$$$$
>  <compound>
CCO

>  <refractive index>
1.366

$$$$
>  <compound>
CC(C)=O

>  <refractive index>
1.359

$$$$
>  <compound>
c1ccncc1

>  <refractive index>
1.5095

$$$$
>  <compound>
ClCCl

>  <refractive index>
1.4237

$$$$
>  <compound>
C1CCOC1 [tetrahydrofuran]

>  <refractive index>
1.405

$$$$
>  <compound>
CCOCCO

>  <refractive index>
1.4065

$$$$
>  <compound>
CCOC(C)=O [ethyl acetate]

>  <refractive index>
1.3719

$$$$
>  <compound>
C1CCCCC1

>  <refractive index>
1.4266

$$$$

###

# experimental-context: 293.15 K; 101.33 kPa; Liquid; Pycnometric method
reported-endpoint: mass density (kg/m3)

>  <compound>
CC#N

>  <unit-abbrev>
kg/m3

>  <quantitative-readout>
783

$$$$
>  <compound>
CC(C)=O

>  <unit-abbrev>
kg/m3

>  <quantitative-readout>
790

$$$$
>  <compound>
CCOCC

>  <unit-abbrev>
kg/m3

>  <quantitative-readout>
714

$$$$
>  <compound>
C1CCCCC1

>  <unit-abbrev>
kg/m3

>  <quantitative-readout>
779

$$$$
>  <compound>
ClC(Cl)Cl

>  <unit-abbrev>
kg/m3

>  <quantitative-readout>
1484

$$$$
>  <compound>
CCOC(C)=O [ethyl acetate]

>  <unit-abbrev>
kg/m3

>  <quantitative-readout>
899

$$$$
>  <compound>
C1COCCO1

>  <unit-abbrev>
kg/m3

>  <quantitative-readout>
1034

$$$$
>  <compound>
ClCCl

>  <unit-abbrev>
kg/m3

>  <quantitative-readout>
1321

$$$$
>  <compound>
CCC(C)=O

>  <unit-abbrev>
kg/m3

>  <quantitative-readout>
805

$$$$
>  <compound>
c1ccncc1

>  <unit-abbrev>
kg/m3

>  <quantitative-readout>
983

$$$$
>  <compound>
Cc1ccccc1

>  <unit-abbrev>
kg/m3

>  <quantitative-readout>
866

$$$$
>  <compound>
CCO

>  <unit-abbrev>
kg/m3

>  <quantitative-readout>
790

$$$$
>  <compound>
CC(=O)O

>  <unit-abbrev>
kg/m3

>  <quantitative-readout>
1049

$$$$
>  <compound>
c1ccccc1

>  <unit-abbrev>
kg/m3

>  <quantitative-readout>
879

$$$$
>  <compound>
CO

>  <unit-abbrev>
kg/m3

>  <quantitative-readout>
792

$$$$
>  <compound>
CCOCCO

>  <unit-abbrev>
kg/m3

>  <quantitative-readout>
929

$$$$
